Biological target: T1, human corticotrophin releasing hormone receptor type 2 (CRHR2) (human, UniProt Q13324 1-411)
T1 sequence (looked up): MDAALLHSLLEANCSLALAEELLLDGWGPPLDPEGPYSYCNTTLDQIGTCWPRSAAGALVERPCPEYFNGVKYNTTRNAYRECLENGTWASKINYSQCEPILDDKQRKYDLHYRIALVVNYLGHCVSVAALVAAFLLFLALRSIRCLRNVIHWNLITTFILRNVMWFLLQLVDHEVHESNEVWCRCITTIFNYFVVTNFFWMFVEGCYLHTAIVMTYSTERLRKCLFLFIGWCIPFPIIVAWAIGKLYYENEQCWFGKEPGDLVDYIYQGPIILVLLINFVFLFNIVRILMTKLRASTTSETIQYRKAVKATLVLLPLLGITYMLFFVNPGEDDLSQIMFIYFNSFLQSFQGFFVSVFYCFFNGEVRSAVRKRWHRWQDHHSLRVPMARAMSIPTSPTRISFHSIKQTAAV
Experiment: cell-based or functional assay
Where no end group is shown, it is not given here.
measurementName: Log DR (log10)

TKFTLSLDVCTNIMNLLFNIAKAKNLRAQAAANAHLMAQI-NH2 [Cys-variant stresscopin-like peptide SEQ ID NO: 11] : 0.82
TKFTLSLDVPTNIMNLLFNIAKCKNLRAQAAANAHLMAQI-NH2 [Cys-variant stresscopin-like peptide SEQ ID NO: 24] : 0.74
TKFTLSLDVPTNIMNLLFNIAKAKNLCAQAAANAHLMAQI (NES-PEG (about 20 kDa) on Cys 27; C-terminal amide (-NH2)) [Pegylated Cys-variant stresscopin-like peptide with NES linker and PEG about 20 kDa SEQ ID NO: 81] : 1.82
TKFTLSLDVPTNIMNLLFNIAKAKNCRAQAAANAHLMAQI-NH2 [Cys-variant stresscopin-like peptide SEQ ID NO: 27] : 0.76
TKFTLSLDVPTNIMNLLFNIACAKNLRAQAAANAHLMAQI (NES-PEG (about 20 kDa) on Cys 22; C-terminal amide (-NH2)) [Pegylated Cys-variant stresscopin-like peptide with NES linker and PEG about 20 kDa SEQ ID NO: 76] : 2.7
